The reported measurements were obtained from patent US10538555B2.

Form field: IC50 (one value per entry).
# Tested system: Human PD-L1/PD-1 (Homo sapiens, UniProt Q9NZQ7)
# Construct: TVMV protease cleavage site (C); made in house; host or cells: HEK293T cells
# Sequence (Q9NZQ7 with tags, fused parts or gaps): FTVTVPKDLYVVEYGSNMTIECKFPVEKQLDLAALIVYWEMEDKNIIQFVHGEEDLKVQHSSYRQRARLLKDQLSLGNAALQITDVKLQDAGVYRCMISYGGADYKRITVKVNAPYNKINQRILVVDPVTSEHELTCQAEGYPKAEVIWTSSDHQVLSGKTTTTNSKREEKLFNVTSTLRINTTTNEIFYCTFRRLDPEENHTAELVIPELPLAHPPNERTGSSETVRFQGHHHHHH
# Measurement notes: HTRF Human PD-L1/PD-1 binding assay (PD-1-Ig/PD-L1-His)
# Measurement parameters: PD-L1-His 10 nM, PD-1-Ig 20 nM; read-out: HTRF Human PD-L1/PD-1 Binding Assay IC50
Where a SMILES comes first, the peptide text is derived from it. Bridges are numbered along the chain shown (N, C = ends). [ ]: non-standard residue; d: D form. ξ: configuration not given here. Phe(4-F) = N[C@@H](Cc1ccc(F)cc1)C(=O)O; Bta = N[C@@H](Cc1csc2ccccc12)C(=O)O; NMeIle(3ξ) = CCC(C)[C@H](NC)C(=O)O; Hyp = O=C(O)[C@@H]1C[C@@H](O)CN1; NMeF = CN[C@@H](Cc1ccccc1)C(=O)O; hPhe = N[C@@H](CCc1ccccc1)C(=O)O; NMehSer = CN[C@@H](CCO)C(=O)O; NMeNle = CCCC[C@H](NC)C(=O)O; dPip = O=C(O)[C@H]1CCCCN1; hSer = N[C@@H](CCO)C(=O)O; NMeA = CN[C@@H](C)C(=O)O; ξC = NC(CS)C(=O)O; Sar = CNCC(=O)O

- Compound: "CCCC[C@H]1C(=O)N(C)[C@@H](CCOC)C(=O)N[C@@H](CC(C)C)C(=O)N[C@H](C(=O)NCC(N)=O)CSCC(=O)N[C@@H](Cc2ccc(O)cc2)C(=O)N(C)[C@@H](C)C(=O)N[C@@H](CC(N)=O)C(=O)N2CCC[C@H]2C(=O)N[C@@H](Cc2c[nH]cn2)C(=O)N[C@@H](CCC(N)=O)C(=O)N2C[C@H](O)C[C@H]2C(=O)N[C@@H](Cc2c[nH]c3ccccc23)C(=O)NCC(=O)N[C@@H](Cc2c[nH]c3ccccc23)C(=O)N1C [Example 10143] ({CH2CO}-Y[NMeA]NPHQ[Hyp]WGW[NMeNle][NMehSer](Me)LCG-NH2; thioether N-14)"
  Tested system: "Human PD-L1/PD-1 (Homo sapiens, UniProt Q9NZQ7)"
  IC50 [µM]: 0.0109
- Compound: "CCCC[C@H]1C(=O)N(C)CC(=O)N[C@@H](CC(=O)O)C(=O)N[C@@H](CCc2ccccc2)C(=O)N(C)[C@@H](Cc2ccccc2)C(=O)N[C@@H](Cc2ccc(O)cc2)C(=O)N(C)CC(=O)N[C@@H](Cc2c[nH]c3ccccc23)C(=O)N[C@@H](Cc2ccc(O)cc2)C(=O)N[C@@H](CC(C)C)C(=O)N[C@H](C(=O)NCC(N)=O)CSCC(=O)N[C@@H](Cc2ccccc2)C(=O)N(C)[C@@H](Cc2ccccc2)C(=O)N1C [Example 3226] ({CH2CO}-F[NMeF][NMeNle][Sar]D[hPhe][NMeF]Y[Sar]WYLCG-NH2; thioether N-13)"
  Tested system: "Human PD-L1/PD-1 (Homo sapiens, UniProt Q9NZQ7)"
  IC50 [µM]: 1.86
- Compound: "CCCC[C@H]1C(=O)N2C[C@H](O)C[C@@H]2C(=O)N[C@@H](CC(=O)O)C(=O)N[C@@H](C(C)C)C(=O)N(C)[C@@H](Cc2ccccc2)C(=O)N[C@@H](CC(N)=O)C(=O)N2C[C@H](O)C[C@@H]2C(=O)N[C@@H](Cc2c[nH]c3ccccc23)C(=O)N[C@@H](Cc2ccc(O)cc2)C(=O)N[C@@H](CCCN)C(=O)N[C@H](C(=O)NCC(N)=O)CSCC(=O)N[C@@H](Cc2ccc(F)c(F)c2)C(=O)N(C)[C@@H](Cc2ccccc2)C(=O)N1C"
  Tested system: "Human PD-L1/PD-1 (Homo sapiens, UniProt Q9NZQ7)"
  IC50 [µM]: 0.0117
- Compound: "CCCC[C@H]1C(=O)N2CCC[C@@H]2C(=O)N[C@@H](CC(=O)O)C(=O)N[C@@H](C(C)C)C(=O)N(C)[C@@H](C(C)CC)C(=O)N[C@@H](Cc2ccc(O)cc2)C(=O)N2CCCC[C@@H]2C(=O)N[C@@H](Cc2c[nH]c3ccccc23)C(=O)N[C@@H](Cc2ccc(O)cc2)C(=O)N[C@@H](CC(C)C)C(=O)N[C@H](C(=O)NCC(N)=O)CSCC(=O)N[C@@H](Cc2ccc(F)cc2)C(=O)N(C)[C@@H](Cc2ccccc2)C(=O)N1C (some centres unmarked) [Example 9258] ({CH2CO}-[Phe(4-F)][NMeF][NMeNle][dP]DV[NMeIle(3ξ)]Y[dPip]WYLCG-NH2; thioether N-13)"
  Tested system: "Human PD-L1/PD-1 (Homo sapiens, UniProt Q9NZQ7)"
  IC50 [µM]: 7.28
- Compound: "CCCC[C@H]1C(=O)N(C)[C@@H](CCCC)C(=O)N[C@@H](CCCNC(=N)N)C(=O)NC(C(=O)NCC(N)=O)CSCC(=O)N[C@@H](Cc2ccc(O)cc2)C(=O)N(C)[C@@H](C)C(=O)N[C@@H](CC(N)=O)C(=O)N2CCC[C@H]2C(=O)N[C@@H](CCO)C(=O)N[C@@H](CC(C)C)C(=O)N2CCC[C@H]2C(=O)N[C@@H](Cc2c[nH]c3ccccc23)C(=O)N[C@@H](CO)C(=O)N[C@@H](Cc2csc3ccccc23)C(=O)N1C (some centres unmarked) [Example 9149] ({CH2CO}-Y[NMeA]NP[hSer]LPWS[Bta][NMeNle][NMeNle]R[ξC]G-NH2; thioether N-14)"
  Tested system: "Human PD-L1/PD-1 (Homo sapiens, UniProt Q9NZQ7)"
  IC50 [µM]: 1
- Compound: "CCCC[C@H]1C(=O)N(C)[C@@H](CCCC)C(=O)N[C@@H](C)C(=O)N[C@H](C(=O)NCC(N)=O)CSCC(=O)N[C@@H](Cc2ccc(O)cc2)C(=O)N2CCCC[C@H]2C(=O)N[C@@H](CC(N)=O)C(=O)N2CCC[C@H]2C(=O)N[C@@H](Cc2cnc[nH]2)C(=O)N[C@@H](CCC(N)=O)C(=O)N2C[C@H](O)C[C@H]2C(=O)N[C@@H](Cc2c[nH]c3ccccc23)C(=O)N[C@@H](CO)C(=O)N[C@@H](Cc2c[nH]c3ccccc23)C(=O)N1C"
  Tested system: "Human PD-L1/PD-1 (Homo sapiens, UniProt Q9NZQ7)"
  IC50 [µM]: 0.0026
- Compound: "CCCC[C@H]1C(=O)N(C)[C@@H](CCCC)C(=O)N[C@@H](CCCNC(=N)N)C(=O)NC(C(=O)NCC(N)=O)CSCC(=O)N[C@@H](Cc2ccc(O)cc2)C(=O)N(C)[C@@H](C)C(=O)N[C@@H](CC(N)=O)C(=O)N2CCC[C@H]2C(=O)N[C@@H](CCO)C(=O)N[C@@H](CO)C(=O)N2CCC[C@H]2C(=O)N[C@@H](Cc2c[nH]c3ccccc23)C(=O)N[C@@H](CO)C(=O)N[C@@H](Cc2csc3ccccc23)C(=O)N1C (some centres unmarked) [Example 10022] ({CH2CO}-Y[NMeA]NP[hSer]SPWS[Bta][NMeNle][NMeNle]R[ξC]G-NH2; thioether N-14)"
  Tested system: "Human PD-L1/PD-1 (Homo sapiens, UniProt Q9NZQ7)"
  IC50 [µM]: 0.134
- Compound: "CCCC[C@H]1C(=O)N(C)[C@@H](C)C(=O)N[C@@H](CCCNC(=N)N)C(=O)NC(C(=O)NCC(N)=O)CSCC(=O)N[C@@H](Cc2ccc(O)cc2)C(=O)N(C)[C@@H](C)C(=O)N[C@@H](CC(N)=O)C(=O)N2CCC[C@H]2C(=O)N[C@@H](Cc2cnc[nH]2)C(=O)N[C@H](CO)C(=O)N2CCC[C@H]2C(=O)N[C@@H](Cc2c[nH]c3ccccc23)C(=O)N[C@@H](CO)C(=O)N[C@@H](Cc2csc3ccccc23)C(=O)N1C (some centres unmarked) [Example 9118] ({CH2CO}-Y[NMeA]NPH[dS]PWS[Bta][NMeNle][NMeA]R[ξC]G-NH2; thioether N-14)"
  Tested system: "Human PD-L1/PD-1 (Homo sapiens, UniProt Q9NZQ7)"
  IC50 [µM]: 0.027
